- System: fresh human hepatocytes
- test.protocol: Release of active metabolite in fresh human hepatocytes
- Assay type: in vitro ADME
- measurement.conditions: 10 μM compound, fresh human hepatocytes, 6, 24 and 48 hours
quantity.name: FHH TP AUC

CCOC(=O)CCOP1(=O)OC[C@H]2O[C@@H](n3cnc4c(OCC)nc(N)nc43)[C@](C)(F)[C@@H]2O1 (single isomer, unassigned; diastereomer 1) [Compound 8 Diastereomer 1]; BLD^a
CCOc1nc(N)nc2c1ncn2[C@@H]1O[C@@H]2COP(=O)(OCCC(=O)OC(C)C)O[C@H]2[C@@]1(C)F (single isomer, unassigned; diastereomer 1) [Compound 21 Diastereomer 1]; BLD^a
CCOc1nc(N)nc2c1ncn2[C@@H]1O[C@@H]2COP(=O)(OCCSSC(C)(C)C)O[C@H]2[C@@]1(C)F (single isomer, unassigned) [Compound 24 Diastereomer 2]; 3031 pmol · hr/mill cells
COc1nc(N)nc2c1ncn2[C@@H]1O[C@@H]2COP(=O)(OCC(=O)OC(C)C)O[C@H]2[C@@]1(C)F (single isomer, unassigned; diastereomer 1) [Compound 26 Diastereomer 1]; BLD^a
